# Test system: Wolbachia pipientis
# protocol description: Anti-Wolbachia Cell-Based Screen
# Assay type: functional
# Design: scale not given: in the data most compounds retested in dose-response had high values
# stated conditions: 5 µM
About 13,000 (27%) of roughly 48,000 compounds showed an effect of 50% or more. The list shows a part of the results.
measured parameter: Percent Effect (%)
One number for each entry, in %.

Reference set, count: 5
[
  {
    "molecule": "CC(=O)N1CCC(c2nnc3ccc(C(=O)NC(C)C)cn23)C1 (stereo unspecified)",
    "experimental system": "Wolbachia pipientis",
    "experimental value": 15.69
  },
  {
    "molecule": "Cc1cc(-c2cnc(NC3CCCCC3)nc2-c2ccco2)on1",
    "experimental system": "Wolbachia pipientis",
    "experimental value": 96.71
  },
  {
    "molecule": "O=C(NC[C@H]1OC[C@@H](NCc2ccccc2)[C@@H]1O)Nc1ccc(F)cc1",
    "experimental system": "Wolbachia pipientis",
    "experimental value": -15.63
  },
  {
    "molecule": "Cc1noc(CNc2ccccc2N2CCCCC2)n1",
    "experimental system": "Wolbachia pipientis",
    "experimental value": 5.096
  },
  {
    "molecule": "CN1CCC(CNC(=O)c2ccc(O)nc2)c2ccccc21 (stereo unspecified)",
    "experimental system": "Wolbachia pipientis",
    "experimental value": -12.01
  }
]

For the next question, use this molecule.
Inquiry: Bench note: what Percent Effect did Cc1cc(NC(=O)N(C)C2CCN(c3ccccc3F)C2=O)n(C)n1 (stereo unspecified) show?
Reply text: -7.553

====

# Test system: Wolbachia pipientis
# protocol description: Anti-Wolbachia Cell-Based Screen
# Assay type: functional
# Set-up: scale not given: in the data most compounds retested in dose-response had high values
# stated conditions: 5 µM
Out of some 48,000 compounds screened, about 13,000 (27%) showed an effect of 50% or more. The list shows a part of the results.
measured parameter: Percent Effect (%)
Numbers only, in %.

[
  {
    "compound": "CN(C)C(=O)N1C[C@@H]2CCCO[C@@H]2[C@H](N(C)Cc2ccco2)C1.O=C(O)C(F)(F)F",
    "Percent Effect / %": -2.152
  }
]

Please report Percent Effect for every entry that follows.
1. Cn1c(SCc2noc(C(C)(C)C)n2)nnc1C1CCS(=O)(=O)C1 (stereo not given)
2. O=C(O)C(F)(F)F.O=S(=O)(C1CC1)N1CCCn2cnc(COc3cccnc3)c2C1

Reply text:
[11.73, 121.6]

Give one value of Percent Effect per listed compound.
1. O=C(O)C(F)(F)F.O=C(O)C(F)(F)F.c1cnc(NCc2ncn3c2CN(Cc2cccnc2)CCC3)nc1
2. CCS(=O)(=O)N1CCCn2cnc(COc3cccnc3)c2C1.O=C(O)C(F)(F)F

Reply text:
1: 4.407; 2: 90.76

====

# Tested on: Wolbachia pipientis
# protocol description: Anti-Wolbachia Cell-Based Screen
# Type: functional
# Parameters: scale not given: in the data most compounds retested in dose-response had high values
# stated conditions: 5 µM
In all, about 48,000 compounds went through this assay and about 13,000 (27%) showed an effect of 50% or more. The list shows a part of the results.
For each of the molecules below, state its Percent Effect.
One number for each entry, in %.

[
  {
    "molecule": "COC(=O)CCNC(=O)c1coc(COc2ccc(F)cc2)n1",
    "Percent Effect [%]": -5.567
  },
  {
    "molecule": "O=C(O)C(F)(F)F.O=S(=O)(Cc1ccccc1)N1CCCn2cnc(CN3CCCC3)c2C1",
    "Percent Effect [%]": -19.91
  }
]

Look up Percent Effect for the entries below, preserving their order.
1. CCOc1ccc(NC(=O)Cc2cc(C)[nH]n2)cc1CO
2. Cc1nnc(CN2CCCC2c2ccc3c(c2)OCCO3)n1C (stereo unspecified)
3. O=C(c1nc(=O)[nH][nH]1)N1CCC2(CCCCC2)C1
4. O=C(O)C(F)(F)F.O=S(=O)(c1cccs1)N1CCCn2cnc(CO)c2C1

Reply text:
1. -2.214
2. 15.49
3. -9.423
4. -6.746

Each of the following entries comes with a recorded value; kindly state Percent Effect for each.
1. COCC(=O)N[C@H]1C[C@@H](Cc2cc(CN3CCOCC3)on2)C1(C)C
2. Fc1cnc(N2CCc3nnc(COc4ccccn4)n3CC2)nc1.O=C(O)C(F)(F)F
3. CN(C)c1cccc(C2CCCN2c2nc3c(cnn3C)c(=O)[nH]2)c1 (stereo unspecified)
4. Cc1ccc(CNC2(Cc3cc(-c4ccccn4)on3)COC2)o1
5. CCn1cnnc1CNC(=O)N(C)Cc1cccc(Cl)c1Cl

Reply text:
-1.513
2.887
1.208
-9.349
-4.031

====

# System: Wolbachia pipientis
# protocol description: Anti-Wolbachia Cell-Based Screen
# Type: functional
# Set-up: scale not given: in the data most compounds retested in dose-response had high values
# stated conditions: 5 µM
In all, about 48,000 compounds went through this assay and about 13,000 (27%) showed an effect of 50% or more. The list shows a part of the results.
measured parameter: Percent Effect (%)
Answers are plain numbers, in %.

[
  {
    "molecule": "O=C(Cc1ccc2c(c1)OCCO2)N1CCCC(n2cccn2)C1 (stereo unspecified)",
    "unit": "%",
    "experimental value": 7.45
  },
  {
    "molecule": "COc1ccc(NC(=O)NCC(O)c2ccc(F)cc2F)c(OC)c1 (stereo unspecified)",
    "unit": "%",
    "experimental value": 9.274
  },
  {
    "molecule": "COc1ccc(OC)c(NC(=O)NCC(O)c2ccc(F)c(F)c2)c1 (stereo unspecified)",
    "unit": "%",
    "experimental value": 19.22
  }
]

Below are 3 molecules. Give each one its Percent Effect.
1. Cc1nc(Cn2nc(C3CCNCC3)n(Cc3ccccc3)c2=O)no1
2. COc1ccccc1C(O)CNC(=O)Nc1ncccc1C (stereo unspecified)
3. O=C(Nc1ccccc1OC1CCOC1)c1cc[nH]n1 (stereo unspecified)

Reply text:
1: -19.55; 2: 0.5949; 3: -3.911

====

# Tested on: Wolbachia pipientis
# protocol description: Anti-Wolbachia Cell-Based Screen
# Type: functional
# Parameters: scale not given: in the data most compounds retested in dose-response had high values
# stated conditions: 5 µM
About 13,000 (27%) of roughly 48,000 compounds showed an effect of 50% or more. Some of the results follow.
So I've got a bunch of compounds here, and I need their Percent Effect values.
Returns: string containing the number followed by the unit.

[
  {
    "compound structure string": "CCCN1CCc2[nH]cnc2C12CCN(C(=O)Cn1ccnc1C)CC2",
    "experimental value": "-4.185%"
  },
  {
    "compound structure string": "Cn1ccc2ccnc(CC3CN(C(=O)C4CCC(F)(F)CC4)C3)c21",
    "experimental value": "-0.631%"
  },
  {
    "compound structure string": "Cc1c(CNC(=O)NCc2cccc(-n3cncn3)c2)cnn1C",
    "experimental value": "-0.3036%"
  }
]

Hey, quick one: what's Percent Effect for each of these?
1. CCn1ccc2ccnc(CC3CN(C(=O)Cn4ccnc4C)C3)c21.O=CO
2. COc1ccccc1C(=O)N1CC(Cc2nccc3ccn(C)c23)C1
3. CCn1ccc2ccnc(CC3CN(C(=O)c4cnco4)C3)c21
4. CCN(CC)CC[C@H]1CN(C(=O)c2ccc(F)cc2)CC[C@H]1CC(=O)O
5. CCn1[nH]c(C)c2c(C(F)(F)F)cc(=O)nc1-2
6. O=C(NCc1ccc(-n2cncn2)nc1)c1ccoc1
7. CCn1ccc2ccnc(CC3CN(C(=O)c4ccc(F)cc4)C3)c21
8. COC(=O)CN1N=C(C(=O)N2CCCC2)S(=O)(=O)c2ccccc21

Reply text:
1. 124.4%
2. -2.36%
3. 144.4%
4. 0.9693%
5. -15.52%
6. 0.1706%
7. 128.6%
8. 18.69%

====

Assignment: determine reported Percent Effect for the given molecules.
# Tested on: Wolbachia pipientis
# protocol description: Anti-Wolbachia Cell-Based Screen
# Assay type: functional
# Design: scale not given: in the data most compounds retested in dose-response had high values
# stated conditions: 5 µM
Among all 48,000 compounds or so, about 13,000 (27%) showed an effect of 50% or more. The list shows a part of the results.
Answers are plain numbers, in %.

Before answering, review these 6 worked examples.
[
  {
    "molecule": "CCc1ccc(CN2CCCCC2c2n[nH]cc2-c2cc(C)no2)cc1.Cl (stereo not given)",
    "experimental system": "Wolbachia pipientis",
    "Percent Effect / %": 131.5
  },
  {
    "molecule": "COc1cc(C)nc(N2CCN(C(=O)CCn3cc(C)cn3)CC2)n1",
    "experimental system": "Wolbachia pipientis",
    "Percent Effect / %": -7.08
  },
  {
    "molecule": "CNC(=O)N(Cc1c(F)cccc1F)C1CCCC1",
    "experimental system": "Wolbachia pipientis",
    "Percent Effect / %": -10.49
  },
  {
    "molecule": "O=C(Cc1ccccc1F)NCC1CCN(CCN2CCOCC2)C1 (stereo not given)",
    "experimental system": "Wolbachia pipientis",
    "Percent Effect / %": 8.19
  },
  {
    "molecule": "Nc1cc(CC2COc3ccccc3C2)ccn1 (stereo not given)",
    "experimental system": "Wolbachia pipientis",
    "Percent Effect / %": -18.54
  },
  {
    "molecule": "CN1CCCN(C(=O)c2nc3c(s2)CCCN3CC2CC2)CC1",
    "experimental system": "Wolbachia pipientis",
    "Percent Effect / %": 15.57
  }
]

Report Percent Effect for every entry below.
1. COCCN1CCCC2(CCN(c3ncnc(C)c3C)C2)C1=O (stereo not given)
2. COCCN1CCCC2(CCN(c3nc(C)nc4c3CCC4)C2)C1=O (stereo not given)
3. COc1ccc(C)cc1CN1CCCC1c1noc(C2CC2)n1 (stereo not given)

Reply text:
[-47.68, -6.714, 18.68]

Would you mind listing Percent Effect for each of the following molecules?
1. COc1ccc2c(c1)OCC(Cc1cc(C(=O)N3CCCC3)ccn1)C2 (stereo not given)
2. CC(C(=O)N1CCCC1)S(=O)(=O)Cc1nc(C(C)(C)C)no1 (stereo not given)
3. Cc1cc(N2CCC3(CCCN(CCO)C3=O)C2)nc(C)c1C#N (stereo not given)
4. O=C1CCC2(CCN(Cc3ccc(F)cc3Cl)CC2)CN1CCO
5. COCCN1CCC(CNC(=O)C2(S(C)(=O)=O)CCCC2)CC1

Reply text:
87.9
0.9098
111
-18.28
-5.804

List reported Percent Effect for each of these molecules:
1. COc1ccc(CN2CCOC[C@H]2c2nc(-c3ccncc3)c[nH]2)cc1
2. CCCC(=O)NCC1CCCN(Cc2cc(C)c(C)o2)C1 (stereo not given)
3. COc1ccc2c(c1)OCC(Cc1ccnc(N)n1)C2 (stereo not given)
4. CC(C)(CNC(=O)C1(c2ccccc2)CCOCC1)C(=O)O
5. Cc1cc(C2CCCN2Cc2ccn(C)c(=O)c2)no1 (stereo not given)
6. COCC(=O)NCC1Cn2nnc(-c3ccoc3)c2CO1 (stereo not given)

Reply text:
-8.206
-7.568
-14.38
1.32
-4.327
-10

// for each molecule below, give its Percent Effect
1. CC(C)(C)n1cc(C(=O)N2CCN(Cc3ccsc3)CC2)cn1
2. COCCN1CCCC2(CCN(c3cccc(C(F)(F)F)n3)C2)C1=O (stereo not given)
3. c1ccc(OCCSC2=NCCN2)cc1
4. O=C(c1c[nH]nn1)N1CCN(C(c2ccccc2)C(F)(F)F)CC1 (stereo not given)
5. Cc1nc(N2CCC3(CCCN(CCO)C3=O)C2)c2sccc2n1 (stereo not given)

Reply text:
2.604
-1.331
-0.348
0.659
-11.1
